- Tested on: SK-MEL-5 melanoma
- assay.details: NCI tumour cell line growth inhibition, 48 h; in the data active = GI50 below about 0.43 µM; inactive = the rest
Outcome codes: true = active, false = inactive

molecule: O=C(Nc1cccc(-n2cc(-c3ccncc3)c(-c3ccc(O)c(Cl)c3)n2)c1)c1cccc(C(F)(F)F)c1
qualitative.label: false

molecule: CC1(C)OC2C(COS(N)(=O)=O)SC(n3cnc4cncnc43)C2O1 (centres undefined)
qualitative.label: false

molecule: N[C@@H]1CCCC[C@@H]1N.O=P([O-])([O-])CN(CP(=O)([O-])[O-])CP(=O)([O-])[O-].[Pt+2]
qualitative.label: false

molecule: COc1ccccc1CNCCCCCCCCCCCCN1C(=O)c2ccc3c4c(ccc(c24)C1=O)C(=O)N(CCCCCCCCCCCCNCc1ccccc1OC)C3=O
qualitative.label: false

molecule: Nc1ccc2c(c1)c(N)nn2C(=O)Nc1ccc(Cc2ccccc2)cc1
qualitative.label: false

molecule: CC(=O)N(Cc1ccccc1)c1ccccc1I(=O)=O
qualitative.label: false

molecule: Cc1cc(Cl)ccc1NS(=O)(=O)c1ccc(-c2cnc(C3CC3)o2)cc1
qualitative.label: false

molecule: O=C(NCCCCCCCNC(=O)OCc1ccc2c(Cl)cc(Cl)c(O)c2n1)OCc1ccc2c(Cl)cc(Cl)c(O)c2n1
qualitative.label: false

molecule: CCOc1cc(-c2ccc[nH]2)[nH]c1/C=C1\N=C(C)C(C(=O)OC)=C1C
qualitative.label: true

* * *

- System: NCI/ADR-RES ovarian
- assay.details: NCI tumour cell line growth inhibition, 48 h

compound: CC(=O)N(Cc1ccccc1)c1ccccc1I(=O)=O
TGI: > 100 µM
//
compound: COc1ccc2nc3n(c2c1)CCc1cc(OC)c(OC)cc1-3
TGI: > 100 µM
//
compound: CC1=C(C(=O)Nc2ccc(Cl)c(Cl)c2)C(c2ccccc2O)NC(=O)N1 (centres undefined)
TGI: > 50 µM
//
compound: CC(=O)OC1CC2C(=O)C(=O)C1(C)C2(C)C (centres undefined)
TGI: > 100 µM
//
compound: Oc1[nH]c2cc(Cl)ccc2c1/C=c1/ccc2c(c1)N=C(c1cc(F)cc(F)c1)N=2
TGI: 6.75 µM
//
compound: Nc1ccc(S(=O)(=O)Nc2cnc3c(Cl)cccc3n2)cc1
TGI: 629 µM
//
compound: CC1COCC(C)N1C1=C(Cl)C(=O)c2ccccc2C1=O (centres undefined)
TGI: 14.1 µM
//
compound: Oc1ccc(Cl)cc1Cc1cc(Cl)ccc1O
TGI: 6.32 µM
//
compound: CSC1=NCC2(S1)c1ccccc1N(C(=O)OC(C)(C)C)C2N1CCCCC1 (centres undefined)
TGI: > 100 µM
//
compound: Cc1csc(NC(=NCCN2CCOCC2)Nc2nc(C)cs2)n1
TGI: > 100 µM
//
compound: COc1cc(NC(=O)Nc2cnc(Nc3ccc(N4CCOCC4)cc3)nc2Oc2cccc(OC)c2)cc(OC)c1
TGI: > 50 µM
//
compound: CN1C(=O)C(O)CC1c1cccc(C(F)(F)F)c1 (centres undefined)
TGI: > 100 µM
//
compound: CC(C)C(=O)Oc1cc2c(=O)oc3c(OC(=O)C(C)C)c(OC(=O)C(C)C)cc4c(=O)oc(c1OC(=O)C(C)C)c2c34
TGI: > 100 µM
//
compound: O=c1[nH]c2ccccc2n1-c1n[nH]c2ccccc12
TGI: > 100 µM

* * *

- System: NCI-H460 lung
- assay.details: NCI tumour cell line growth inhibition, 48 h
TGI values, listed per item

compound: Cc1cc(Cl)cc2c1NC(=O)C2=O (tested in a mixture with another compound)
TGI: > 100 µM
//
compound: CC(=O)Nc1cc(Nc2cc(=O)[nH]c(=O)[nH]2)ccc1C
TGI: > 100 µM
//
compound: CCOP(=O)(OCC)C(C)(CC)NC(=O)C(C(F)(F)F)C(F)(F)F (stereo not given)
TGI: > 100 µM
//
compound: Cc1ccc(S(=O)(=O)N(CC(O)COc2ccccc2)c2ccc(F)cc2F)cc1 (stereo not given)
TGI: 33.7 µM
//
compound: COc1ccc(S(=O)(=O)N(C)CC(=O)O)cc1
TGI: > 100 µM
//
compound: CSC1=NCC2(S1)c1ccccc1N(C(=O)OC(C)(C)C)C2N1CCCCC1 (stereo not given)
TGI: > 100 µM
//
compound: NC(=O)Cc1nc2c(=O)[nH]cnc2n1C1OC(CO)C(O)C1O (stereo not given)
TGI: > 100 µM
//
compound: C/C(=N\Nc1nc2ccccc2[nH]1)c1cc2ccccc2cn1
TGI: 1.45 µM
//
compound: CCOc1ccc(C(CN2CCOCC2)C(C)=O)cc1OC (stereo not given)
TGI: 32.5 µM
//
compound: Oc1ccc(Cl)cc1Cc1cc(Cl)ccc1O
TGI: 10.7 µM
//
compound: CCCCCCCCCCCCOP(N)(=O)OCCCCCCCCCCCC
TGI: > 100 µM
//
compound: CC1OC(OC2CCC3(C=O)C4CCC5(C)C(C6=CC(=O)OC6)CCC5(O)C4CCC3(O)C2)C(O)C(O)C1O (stereo not given)
TGI: 3.81e-05 µM
//
compound: CC(=O)Oc1ccc(/C=N/NC(N)=S)nc1
TGI: > 100 µM
//
compound: CCOC(=O)C1COc2cc(-c3cc(=O)c4ccccc4o3)ccc2O1 (stereo not given)
TGI: > 100 µM
//
compound: O=c1cc(-c2ccccn2)[nH]c2ccc(Cl)cc12
TGI: > 100 µM
//
compound: Cc1ccc(S(=O)(=O)n2cc(C#N)c(C#N)c2)cc1
TGI: > 100 µM
//
compound: CCOC(=O)C(=O)C(=O)NN(C)C1=NCCN1
TGI: > 100 µM
//
compound: O=C(/C=C/c1cccs1)c1ccccc1Cl
TGI: 40.8 µM
//
compound: Cc1cc2cc3c(cc2c(-c2ccc(N)cc2)n1)OCO3
TGI: > 100 µM
//
compound: Cc1ccc(NC(=O)CC(=O)N2N=C(N(CCC#N)c3cccc(C)c3)CC2c2ccccc2)cc1 (stereo not given)
TGI: > 100 µM
//
compound: COC(=O)[C@@H]1CN(C(=O)c2ccccc2)C(=O)N1C(=O)OCc1ccccc1
TGI: > 100 µM
//
compound: O=C(Cc1csc2nc(-c3ccc(Br)cc3)cn12)N/N=C/c1ccc(O)cc1
TGI: > 100 µM
//
compound: FC1OC2OC1C(OCc1ccccc1)C(OCc1ccccc1)C2OCc1ccccc1 (stereo not given)
TGI: > 100 µM
//
compound: C[N+](C)(C)CC1CCCC(C[N+](C)(C)C)C1O (stereo not given)
TGI: > 100 µM
//
compound: CCCCCCCCCCCCCCCCOC(=O)c1cc(O)cc(C(=O)OCCCCCCCCCCCCCCCC)c1
TGI: > 100 µM
//
compound: CCOC(=O)C1(C(F)(F)F)N=C(CC)OC(N2CCOCC2)=N1 (stereo not given)
TGI: > 100 µM
//
compound: COc1nc(NC2OC(COC(C)=O)C(OC(C)=O)C(OC(C)=O)C2OC(C)=O)c(-c2csc(N)n2)c(=O)n1C (stereo not given)
TGI: > 100 µM
//
compound: C#CCN(Cc1ccc2nc(N)[nH]c(=O)c2c1)c1ccc(C(=O)NC(CCC(=O)O)C(=O)O)cc1 (stereo not given)
TGI: > 100 µM
//
compound: CC1=C(C(=O)Nc2ccc(Cl)c(Cl)c2)C(c2ccccc2O)NC(=O)N1 (stereo not given)
TGI: > 50 µM
//
compound: Cc1nc(N)nc2ccccc12
TGI: > 100 µM
//
compound: COc1ccc(CCN2CCc3c(C)c(C#N)c4nc5ccccc5n4c32)cc1OC
TGI: > 100 µM
//
compound: COc1ccc2nc3n(c2c1)CCc1cc(OC)c(OC)cc1-3
TGI: > 100 µM
//
compound: CCOC(=O)C1CCCCN1CCc1c[nH]c2ccccc12 (stereo not given)
TGI: > 100 µM
//
compound: CCOC(=O)[C@H]1Nc2ccccc2C2c3ccccc3CC21 (stereo not given in full)
TGI: > 100 µM
//
compound: CCN(CC)c1ccc2cc(-c3nc4ccccc4c(=O)[nH]3)c(=N)oc2c1
TGI: > 100 µM
//
compound: COC(=O)C1=C(O)C(C(=O)OC)[C@]2(O)[C@H](C(=O)OC)[C@H]1C[C@@H](c1ccc([N+](=O)[O-])cc1)[C@H]2C(=O)OC (stereo not given in full)
TGI: > 100 µM
//
compound: Cc1cc([N+](=O)[O-])c(C)c(Br)c1C
TGI: > 100 µM
//
compound: COc1cc(NC(=O)Nc2cnc(Nc3ccc(N4CCOCC4)cc3)nc2Oc2cccc(OC)c2)cc(OC)c1
TGI: 2.27 µM
//
compound: COc1ccc2nc3ccccc3c(NCCCCN(C)CCCl)c2c1
TGI: 0.234 µM
//
compound: O=C(NNCc1ccc(Cl)cc1)Nc1cccc2ccccc12
TGI: > 100 µM
//
compound: Nc1ccc(S(=O)(=O)Nc2cnc3c(Cl)cccc3n2)cc1
TGI: > 750 µM
//
compound: CCSC(SCC)=C1C(=O)N(c2ccccc2)N=C1C
TGI: 29.5 µM
//
compound: N/C(=N\Nc1ccc(S(N)(=O)=O)cc1)c1cnccn1
TGI: > 100 µM
//
compound: CC(C)C1(O)C(=O)N(c2c(F)c(F)c(F)c(F)c2F)C(=S)N1CCSc1ccccc1 (stereo not given)
TGI: 38.4 µM
//
compound: C(/Cc1ccc2c(c1)OCO2)=N\NC1=NCCCN1
TGI: > 100 µM
